Assay: NCI Yeast Anticancer Drug Screen. Data for the rad50 strain (AID 155);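 further: 0% = growth of vehicle-only cultures of the same strain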
Details: S. cerevisiae rad50 strain growth inhibition; at 50.0 µM (retest, dose inferred, filed as 5.0); stronger effect = higher value
Procedure: Growth inhibition of yeast strains with defined genetic alterations is measured as a screen for potential anti-cancer activity. Selected strains with alterations in DNA damage repair or cell cycle control were exposed to compounds and growth inhibition was measured relative to vehicle treated controls. The strain used in this assay is rad50
Compounds without any hit were thinned out: in the full panel of roughly 79,000, 15% have a hit.
measured_attribute: growth inhibition (%)
The response must be a number in % with no trailing unit.

Consider the following illustrative entries.
INSERT INTO measurements (compound, measured_attribute, numeric_value) VALUES
  ('N#CN(Cc1ccccc1)C(c1ccccc1)(c1ccccc1)c1ccccc1.[I][Sn]([c]1ccccc1)([c]1ccccc1)[c]1ccccc1', 'growth inhibition', 96),
  ('CC(=O)CC(=O)Nc1c(C)[c]([Hg][O]C(C)=O)c(C)[c]([Hg][O]C(C)=O)[c]1[Hg][O]C(C)=O', 'growth inhibition', 93),
  ('CC1CC[N-]C(C)C1.CN(C)C=O.[Cl][Pt][Cl] (stereo not drawn)', 'growth inhibition', 100);

Form field growth inhibition, entry `Nc1ccccc1C(=O)c1ccccc1` : 8

Form field growth inhibition, entry O=C1C=CC(=O)C(Br)C1Br (stereo not drawn) : 34

Form field growth inhibition, entry ClC(CN1CCCCC1)C(Cl)c1ccccc1 (stereo not drawn) : 28

Form field growth inhibition, entry `CC(=O)O[C@@H]1[C@@H](O)[C@H]2O[C@@H]3C=C(C)C(=O)[C@@H](O)[C@]3(CO)[C@]1(C)[C@]21CO1` : 85

Form field growth inhibition, entry `Sc1ccccc1.[Ag]` : 97

Form field growth inhibition, entry `CC1=C/C(=C2/N=C(N(C)C)SS2)C(C)=N1` : 78

* * *

test: NCI Yeast Anticancer Drug Screen. Data for the bub3 strain (AID 167); settings: S. cerevisiae bub3 mutant strain, at 5.0 µM (retest, dose inferred, filed as 0.5), stronger effect = higher value
Compounds without any hit were thinned out: in the full panel of roughly 79,000, 15% have a hit.
Measured growth inhibition of individual entries
The response must be a number in % with no trailing unit.

Consider the following illustrative entries.
INSERT INTO assay_data (compound, measured_attribute, numeric_value) VALUES
  ('CC(=O)OC1CCC2C3CCC4C(F)C(=O)C(F)(F)CC4(C)C3CCC12C (stereo not given)', 'growth inhibition', -1),
  ('CC(C)C12C=C3CCC4C(C)(C(=O)O)CCCC4(C)C3(CC1)OO2 (stereo not given)', 'growth inhibition', -8),
  ('Nc1ccccc1O.O.O=C(O)C1[O][Sb][O]C1C(=O)O (stereo not given)', 'growth inhibition', 37),
  ('[N-]=[N+]=Nc1c([N+](=O)[O-])c(=O)n2c3c(cccc13)CCC2', 'growth inhibition', 37);

Then this compound:
Form field growth inhibition, entry C[C@]12Cc3cn4ncnc4nc3CC1CC[C@@H]1[C@@H]2CC[C@]2(C)C(O)CC[C@@H]12 (stereo not given in full) : 24

* * *

Measured growth inhibition of individual entries
assay: NCI Yeast Anticancer Drug Screen. Data for the mlh1 rad18 strain (AID 175); conditions: S. cerevisiae mlh1 rad18 strain growth inhibition; at 50.0 µM (retest, dose inferred, filed as 5.0); stronger effect = higher value
The panel holds about 79,000 compounds, 15% with a hit somewhere; the sample as a whole holds those more often. Calls of active or inactive are those of the source. Cut-off read from the data, not from the text of the source: active = growth inhibition above about 70%; inactive = the rest.

Consider the following illustrative entries.
INSERT INTO assay_data (compound, result) VALUES
  ('CC(=O)Nc1ccc([As](O[As](c2ccc(NC(C)=O)cc2)c2ccc([N+](=O)[O-])cc2)c2ccc([N+](=O)[O-])cc2)cc1 (stereo unspecified)', '99% (active)'),
  ('C[N+](C)(C)CC1CCCC(C[N+](C)(C)C)C1O (stereo unspecified)', '80% (active)'),
  ('CCCNC1=C(C)C(=O)C2=C(C1=O)[C@H](COC(N)=O)[C@]1(OC)[C@@H]3N[C@@H]3CN21', '93% (active)'),
  ('COc1cc2c(cc1OC)C(OC)N(C)c1c-2ccc2cc3c(cc12)OCO3 (stereo unspecified)', '24% (inactive)'),
  ('NC(=O)c1cc([N+](=O)[O-])c(Cl)c([N+](=O)[O-])c1Cl', '61% (inactive)'),
  ('CC(=O)O[C@@H]1[C@@H](O)[C@H]2O[C@@H]3C=C(C)C(=O)[C@@H](O)[C@]3(CO)[C@]1(C)[C@]21CO1', '95% (active)');

Then this compound:
Form field growth inhibition, entry `O=NN(CC(=O)O)c1ncccn1` : -2% (inactive)

* * *

Measured growth inhibition of individual entries
test: NCI Yeast Anticancer Drug Screen. Data for the sgs1 mgt1 strain (AID 161);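 further: 0% = growth of cultures given vehicle only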; settings: S. cerevisiae sgs1 mgt1 strain, at 50.0 µM, stronger effect = higher value
This is part of a sample that, as a whole, favours compounds with a hit. Of some 79,000 tested, about 15% had one in any assay.
The response must be a number in % with no trailing unit.

Consider the following illustrative entries.
INSERT INTO results (structure_string, measured_attribute, numeric_value) VALUES
  ('CCCC[P+](C#Cc1ccccc1)(CCCC)CCCC', 'growth inhibition', 9.5),
  ('Cc1cccc(C)c1N', 'growth inhibition', -9.65);

Form field growth inhibition, entry `Br[CH](Br)[Hg][c]1ccccc1` : 94.3

Form field growth inhibition, entry `COc1cccc(C=C2C(=O)NC(=S)NC2=O)c1O` : -4.35

Form field growth inhibition, entry `Cc1nc(N)nc(N)c1CCCOc1ccc(NC(=O)c2cccc(S(=O)(=O)F)c2)cc1` : 15.4

Form field growth inhibition, entry `COC1=CC(=Nc2ccc(N(CCCl)CCCl)cc2)C=CC1=O` : 14.3

Form field growth inhibition, entry `COP(=O)(NC12CC3CC(CC(C3)C1)C2)OC` : -13.4

Form field growth inhibition, entry `O=C(O)CN1C(=O)CN=C(c2ccccn2)c2cc(Cl)ccc21` : -23.8

Form field growth inhibition, entry `O=[N+]([O-])c1cccc(/C=C/C=C/c2ccc(Cl)c(S(=O)(=O)F)c2)c1` : -39.5

Form field growth inhibition, entry `Cc1ccc(NP(=S)(Nc2ccc(C)cc2C)Nc2ccc(C)cc2C)c(C)c1` : -3.1

Form field growth inhibition, entry `C=CCCOC(=O)CO[N+](=O)[O-]` : 5.35

Form field growth inhibition, entry `CNP1(NC)=NP(N(C)C)(N(C)C)=NP(N(C)C)(N(C)C)=N1` : -3

* * *

experiment: NCI Yeast Anticancer Drug Screen. Data for the sgs1 mgt1 strain (AID 161);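 further: 0% = growth of cultures given vehicle only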; conditions: S. cerevisiae sgs1 mgt1 strain, at 50.0 µM, stronger effect = higher value
About 79,000 compounds went through this panel and 15% of them were active in at least one assay; those are over-represented in the sample as a whole.
Measured growth inhibition of individual entries
The response must be a number in % with no trailing unit.

INSERT INTO results (molecule, measured_attribute, numeric_value) VALUES
  ('Cc1nnc2n1-c1ccc(Cl)cc1C(c1ccccc1)=[N+]([O-])C2', 'growth inhibition', 3.05),
  ('Cc1ccc(S(=O)(=O)/N=[Se](\C)c2ccccc2)cc1 (centres undefined)', 'growth inhibition', 90.7),
  ('CC12CCCCC1C(=O)C2(Cl)Cl (centres undefined)', 'growth inhibition', 43),
  ('CC12CCC3C(CC=C4CC(=O)CCC43CCO)C1CCC2Oc1ccccc1 (centres undefined)', 'growth inhibition', -2.45),
  ('c1ccc(CCN2CCOCC2)nc1', 'growth inhibition', -8.95),
  ('COP(=O)(O)NC(C)=O', 'growth inhibition', 8.85),
  ('Cc1ccc(N)c(C)c1', 'growth inhibition', -1.5),
  ('O=C(O)c1ccccc1O.[Cu]', 'growth inhibition', -36.8);

Form field growth inhibition, entry `Nc1ccc(/C=C/C(=O)Nc2ccc(S(=O)(=O)F)cc2)cc1` : 21.1

* * *

Measured growth inhibition of individual entries
experiment: NCI Yeast Anticancer Drug Screen. Data for the mec2-1 strain (AID 157); settings: S. cerevisiae mec2-1 strain, at 50.0 µM (retest, dose inferred, filed as 5.0), stronger effect = higher value
About 79,000 compounds went through this panel and 15% of them were active in at least one assay; those are over-represented in the sample as a whole. Calls of active or inactive are those of the source. No stated cut-off is given here; in the data, active means growth inhibition above about 70%; inactive means the rest.

Consider the following illustrative entries.
INSERT INTO assay_data (compound, result) VALUES
  ('CC(C)c1oc(=O)cc2c1C(O)C1OC(=O)C3(C)C(O)C4OC4C2(C)C13 (centres undefined)', '81% (active)'),
  ('CC12CCC(=O)C=C1CCC1C2CCC2(C)C(O[Si](C)(C)OC3CCC4C5CCC6=CC(=O)CCC6(C)C5CCC34C)CCC12 (centres undefined)', '16% (inactive)'),
  ('CC(=O)O.[RuH].c1ccc([PH+](c2ccccc2)c2ccccc2)cc1.c1ccc([PH+](c2ccccc2)c2ccccc2)cc1.c1ccc([PH+](c2ccccc2)c2ccccc2)cc1', '90% (active)'),
  ('Cc1cc(N(CCCl)CCCl)ccc1C1N(Cc2ccc(N(CCCl)CCCl)cc2Cl)CCCN1Cc1ccc(N(CCCl)CCCl)cc1Cl', '96% (active)'),
  ('[Cl][Hg][c]1ccc2ccccc2c1', '97% (active)');

Form field growth inhibition, entry COc1cc(C(=O)[O][Hg][CH2]C2CC(O)CC([CH2][Hg][O]C(=O)c3cc(OC)c(OC)c(OC)c3)O2)cc(OC)c1OC (centres undefined) : 99% (active)

Form field growth inhibition, entry `O=[N+]([O-])c1cccc(SC(Cl)(Cl)Cl)c1` : 99% (active)

Form field growth inhibition, entry CC12CCCCC1C(=O)C2(Cl)Cl (centres undefined) : 17% (inactive)

Form field growth inhibition, entry `C=C1C(=O)O[C@@H]2C[C@@H](C)[C@@H]3C=CC(=O)[C@@]3(C)[C@@H](O)[C@H]12` : 19% (inactive)

Form field growth inhibition, entry O=P1(N2CCOCC2)OC(c2ccccc2)=CCN1c1ccccc1 (centres undefined) : -1% (inactive)

Form field growth inhibition, entry `O=C([CH-]C(=O)c1ccccc1)c1ccccc1.O=C([CH-]C(=O)c1ccccc1)c1ccccc1.O=C([CH-]C(=O)c1ccccc1)c1ccccc1.[Cl-].[Zr+4]` : 83% (active)

Form field growth inhibition, entry CC(Cc1ccc2c(c1)OCO2)NN (centres undefined) : 6% (inactive)
